Tested on: Staphylococcus aureus
Assay: Antibacterial activity against Staphylococcus aureus at 50 to 100 uM after 24 hrs by well diffusion method
Type: functional
Rule: fulfilled for inhibition zone not less than 20 mm, not fulfilled for anything less.

> print(dat)
                              smilesnotation           testedsystem  classification
 1  COC(=O)CSc1nnc(Cc2csc(NC(=O)c3ccccc3)n2)n1NC(=O)c1cccc([N+](=O)[O-])c1  Staphylococcus aureus       fulfilled
 2  CC(=O)Nc1nc(Cc2nnc(SCSc3nnc(Cc4csc(NC(C)=O)n4)n3NC(=O)c3cccc([N+](=O)[O-])c3)n2NC(=O)c2cccc([N+](=O)[O-])c2)cs1  Staphylococcus aureus       fulfilled
 3  N#CCSc1nnc(Cc2csc(NC(=O)CCl)n2)n1NC(=O)c1ccc(Cl)cc1  Staphylococcus aureus       fulfilled
 4  CC(=O)Nc1nc(Cc2nnc(SCc3nnc(S)n3N)n2NC(=O)c2ccc(Cl)cc2)cs1  Staphylococcus aureus       fulfilled
 5            Nn1c(S)nnc1Cc1csc(NCCC(=O)O)n1  Staphylococcus aureus       fulfilled
 6  Nn1c(S)nnc1CSc1nnc(Cc2csc(NC(=O)c3ccccc3)n2)n1NC(=O)c1cccc([N+](=O)[O-])c1  Staphylococcus aureus       fulfilled
 7              CC(=O)Nc1nc(Cc2nnc(S)n2N)cs1  Staphylococcus aureus       fulfilled
 8  O=C(CSc1nnc(Cc2csc(NC(=O)CCl)n2)n1NC(=O)c1cccc([N+](=O)[O-])c1)N/N=C/c1ccccc1  Staphylococcus aureus       fulfilled
 9  O=C(CSc1nnc(Cc2csc(NC(=O)CCl)n2)n1NC(=O)c1ccc(Cl)cc1)N/N=C/c1ccccc1  Staphylococcus aureus       fulfilled
10  O=C(O)CCNc1nc(Cc2nnc(SCC(=O)NNC(=O)c3ccccc3)n2NC(=O)c2ccc(Cl)cc2)cs1  Staphylococcus aureus   not fulfilled
11  O=C(CCl)Nc1nc(Cc2nnc(SCSc3nnc(Cc4csc(NC(=O)CCl)n4)n3NC(=O)c3ccc(Cl)cc3)n2NC(=O)c2ccc(Cl)cc2)cs1  Staphylococcus aureus       fulfilled
12  NNC(=O)CSc1nnc(Cc2csc(NCCC(=O)O)n2)n1NC(=O)c1cccc([N+](=O)[O-])c1  Staphylococcus aureus       fulfilled
13  COC(=O)CSc1nnc(Cc2csc(NC(=O)CCl)n2)n1NC(=O)c1ccc(Cl)cc1  Staphylococcus aureus   not fulfilled
14  CC(=O)Nc1nc(Cc2nnc(SCC(=O)NN)n2NC(=O)c2ccc(Cl)cc2)cs1  Staphylococcus aureus   not fulfilled
15  N#CCSc1nnc(Cc2csc(NC(=O)c3ccccc3)n2)n1NC(=O)c1ccc(Cl)cc1  Staphylococcus aureus       fulfilled
16  O=C(CCl)NNC(=O)CSc1nnc(Cc2csc(NC(=O)CCl)n2)n1NC(=O)c1cccc([N+](=O)[O-])c1  Staphylococcus aureus   not fulfilled

###

Test system: Pseudomonas aeruginosa
Assay: Antibacterial activity against Pseudomonas aeruginosa at 50 to 100 uM after 24 hrs by well diffusion method
Assay type: functional
Listing of recorded inhibition zone by entry.
assayMetric: inhibition zone (mm)

> print(dat)
                             smilesnotation  unitofmeasure  reportedvalue
1  CC(=O)Nc1nc(Cc2nnc(SCC#N)n2NC(=O)c2ccc(Cl)cc2)cs1             mm             20
2  CC(=O)Nc1nc(Cc2nnc(SCc3nnc(S)n3N)n2NC(=O)c2ccc(Cl)cc2)cs1             mm             21
3  CC(=O)Nc1nc(Cc2nnc(SCC(=O)NNC(=O)CCl)n2NC(=O)c2ccc(Cl)cc2)cs1             mm             20
4  O=C(Nc1nc(Cc2nnc(S)n2NC(=O)c2ccc(Cl)cc2)cs1)c1ccccc1             mm             10
5  NNC(=O)CSc1nnc(Cc2csc(NC(=O)CCl)n2)n1NC(=O)c1cccc([N+](=O)[O-])c1             mm             20
6  COC(=O)CSc1nnc(Cc2csc(NC(=O)c3ccccc3)n2)n1NC(=O)c1ccc(Cl)cc1             mm             22
7  CC(=O)Nc1nc(Cc2nnc(S)n2NC(=O)c2ccc(Cl)cc2)cs1             mm             16
8  CC(=O)Nc1nc(Cc2nnc(SCC(=O)NNC(=O)CCl)n2NC(=O)c2cccc([N+](=O)[O-])c2)cs1             mm             18
9  O=C(O)CCNc1nc(Cc2nnc(SCC(=O)N/N=C/c3ccccc3)n2NC(=O)c2ccc(Cl)cc2)cs1             mm             27

###

Test system: Staphylococcus aureus
Assay: Antibacterial activity against Staphylococcus aureus at 50 to 100 uM after 24 hrs by well diffusion method
Type: functional
Listing of recorded inhibition zone by entry.

smilesNotation	inhibition zone / mm
NNC(=O)CSc1nnc(Cc2csc(NCCC(=O)O)n2)n1NC(=O)c1ccc(Cl)cc1	23
O=C(Nc1nc(Cc2nnc(S)n2NC(=O)c2cccc([N+](=O)[O-])c2)cs1)c1ccccc1	11
O=C(Nc1nc(Cc2nnc(SCSc3nnc(Cc4csc(NC(=O)c5ccccc5)n4)n3NC(=O)c3ccc(Cl)cc3)n2NC(=O)c2ccc(Cl)cc2)cs1)c1ccccc1	29
CC(=O)Nc1nc(Cc2nnc(SCC(=O)N/N=C/c3ccccc3)n2NC(=O)c2ccc(Cl)cc2)cs1	25
CC(=O)NNC(=O)CSc1nnc(Cc2csc(NCCC(=O)O)n2)n1NC(=O)c1ccc(Cl)cc1	20
N#CCSc1nnc(Cc2csc(NCCC(=O)O)n2)n1NC(=O)c1ccc(Cl)cc1	30
CC(=O)NNC(=O)CSc1nnc(Cc2csc(NC(=O)c3ccccc3)n2)n1NC(=O)c1cccc([N+](=O)[O-])c1	20
O=C(CSc1nnc(Cc2csc(NC(=O)c3ccccc3)n2)n1NC(=O)c1cccc([N+](=O)[O-])c1)N/N=C/c1ccccc1	32
O=C(O)CCNc1nc(Cc2nnc(SCC(=O)N/N=C/c3ccccc3)n2NC(=O)c2ccc(Cl)cc2)cs1	22
CC(=O)Nc1nc(Cc2nnc(SCC(=O)N/N=C/c3ccccc3)n2NC(=O)c2cccc([N+](=O)[O-])c2)cs1	30
COC(=O)CSc1nnc(Cc2csc(NCCC(=O)O)n2)n1NC(=O)c1ccc(Cl)cc1	26
O=C(CCl)Nc1nc(Cc2nnc(S)n2NC(=O)c2ccc(Cl)cc2)cs1	20
NNC(=O)CSc1nnc(Cc2csc(NC(=O)c3ccccc3)n2)n1NC(=O)c1ccc(Cl)cc1	32
NNC(=O)CSc1nnc(Cc2csc(NC(=O)CCl)n2)n1NC(=O)c1cccc([N+](=O)[O-])c1	29
O=C(Nc1nc(Cc2nnc(SCSc3nnc(Cc4csc(NC(=O)c5ccccc5)n4)n3NC(=O)c3cccc([N+](=O)[O-])c3)n2NC(=O)c2cccc([N+](=O)[O-])c2)cs1)c1ccccc1	26
CC(=O)NNC(=O)CSc1nnc(Cc2csc(NC(=O)CCl)n2)n1NC(=O)c1cccc([N+](=O)[O-])c1	27
O=C(CSc1nnc(Cc2csc(NC(=O)CCl)n2)n1NC(=O)c1ccc(Cl)cc1)NNC(=O)c1ccccc1	21
CC(=O)NNC(=O)CSc1nnc(Cc2csc(NCCC(=O)O)n2)n1NC(=O)c1cccc([N+](=O)[O-])c1	24
O=C(CCl)NNC(=O)CSc1nnc(Cc2csc(NC(=O)c3ccccc3)n2)n1NC(=O)c1ccc(Cl)cc1	26
O=C(CCl)Nc1nc(Cc2nnc(S)n2NC(=O)c2cccc([N+](=O)[O-])c2)cs1	22
CC(=O)Nc1nc(Cc2nnc(SCC#N)n2NC(=O)c2cccc([N+](=O)[O-])c2)cs1	22
Nn1c(S)nnc1CSc1nnc(Cc2csc(NC(=O)c3ccccc3)n2)n1NC(=O)c1ccc(Cl)cc1	26
O=C(O)CCNc1nc(Cc2nnc(S)n2NC(=O)c2cccc([N+](=O)[O-])c2)cs1	28
CC(=O)NNC(=O)CSc1nnc(Cc2csc(NC(C)=O)n2)n1NC(=O)c1ccc(Cl)cc1	27
CC(=O)Nc1nc(Cc2nnc(SCC#N)n2NC(=O)c2ccc(Cl)cc2)cs1	28
COC(=O)CSc1nnc(Cc2csc(NC(=O)c3ccccc3)n2)n1NC(=O)c1ccc(Cl)cc1	22
O=C(O)CCNc1nc(Cc2nnc(SCC(=O)N/N=C/c3ccccc3)n2NC(=O)c2cccc([N+](=O)[O-])c2)cs1	30
O=C(CCl)Nc1nc(Cc2nnc(SCSc3nnc(Cc4csc(NC(=O)CCl)n4)n3NC(=O)c3cccc([N+](=O)[O-])c3)n2NC(=O)c2cccc([N+](=O)[O-])c2)cs1	18
Nn1c(S)nnc1CSc1nnc(Cc2csc(NC(=O)CCl)n2)n1NC(=O)c1ccc(Cl)cc1	27
Nn1c(S)nnc1CSc1nnc(Cc2csc(NCCC(=O)O)n2)n1NC(=O)c1cccc([N+](=O)[O-])c1	26
NNC(=O)CSc1nnc(Cc2csc(NC(=O)CCl)n2)n1NC(=O)c1ccc(Cl)cc1	16
O=C(O)CCNc1nc(Cc2nnc(SCSc3nnc(Cc4csc(NCCC(=O)O)n4)n3NC(=O)c3cccc([N+](=O)[O-])c3)n2NC(=O)c2cccc([N+](=O)[O-])c2)cs1	25
Nn1c(S)nnc1Cc1csc(NC(=O)c2ccccc2)n1	22
